Just for reference, patent US5324747A is where these values come from.

- targetOfAssay: HSF-PLA2 (Homo sapiens)
- Construct: extracellular enzyme obtained from human synovial fluid (HSF-PLA2); from tissue; host or cells: pooled human synovial fluid, added at 0.1% (v/v)
- Sequence (P14555 21-144): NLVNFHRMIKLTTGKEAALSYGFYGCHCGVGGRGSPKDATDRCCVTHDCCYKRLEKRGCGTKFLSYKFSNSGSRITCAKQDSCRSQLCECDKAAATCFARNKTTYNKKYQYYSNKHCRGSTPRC
- experiment: Assay for Inhibition of HSF-PLA2 In Vitro
- Assay type: biochemical
- experimentalSetup: (1 μM); read-out: Inhib of HSF-PLA2, % inhibition
- Description: Assay for Inhibition of HSF-PLA2 In Vitro The PLA2 used in this test is the extracellular enzyme obtained from human synovial fluid (HSF-PLA2). The optimal conditions which were developed for the assay of HSF-PLA2 inhibitors are summarized as follows. […] The reaction was initiated by the addition of HSF-PLA2 and duplicate samples of the mixture were incubated in 13×100 mm glass tubes with shaking for 30 minutes at 37° C. […]
Label scheme for inhibition at 1 µM: lower than 80% is F, 80% and above is T.

Examples from the recorded data:
smilesRepresentation	category
CCCCCCCCCC(=O)Oc1cc(OC(=O)CCCCCCCCC)cc(N(CC(=O)O)CC(=O)O)c1	F
CCCCCCCCCCCCCCCCCCOc1cc(OCc2ccc3ccccc3n2)cc(N(CC(=O)O)CC(=O)O)c1	T
CCCCCCCCCCCCCCCCCCOc1cc(OCCCCc2ccc3cc(O)c(O)cc3c2)cc(N(CC(=O)O)CC(=O)O)c1	T

[in] Determine whether this compound has inhibition at 1 µM no lower than 80%: `CCCCCCCCCCCCCCCCCCOc1cc(OCCCP(=O)(O)OCC)cc(N(CC(=O)O)CC(=O)O)c1`
[out] F

[in] Assess whether reported inhibition at 1 µM for `CCCCCCCCCCCCCCCCCCOc1cc(OCCCOc2cccc(Br)c2)cc(N(CC(=O)O)CC(=O)O)c1` sits at 80% or higher.
[out] T

[in] Answer whether inhibition at 1 µM of `CCCCCCCCCCCCCCCCCCOc1cc(OCCCOc2ccc(C(C)(C)C)cc2)cc(N(CC(=O)O)CC(=O)O)c1` is greater than or equal to 80%.
[out] T
